PROPERTY LABEL: melting point

query: I have this compound here, C=C[C@@H]1CN(Cc2ccccc2)C(=O)c2cnc(-c3ccccc3)nc2N1c1ccccc1 [(R)-I-13] , and I need its recorded melting point.
result: 212.7 to 213.6 °C

query: I have this compound here, C=C[C@H]1CN(Cc2ccccc2)C(=O)c2cnc(-c3cccc4ccccc34)nc2N1c1ccccc1 [(S)-I-14] , and I need its recorded melting point.
result: 227.2 to 227.4 °C

query: I have this compound here, C=C[C@@H]1CN(Cc2ccccc2)C(=O)c2cnc(Nc3ccccc3)nc2N1c1ccccc1 [(R)-I-18] , and I need its recorded melting point.
result: 232.1 to 232.3 °C

query: I have this compound here, C=C[C@H]1CN(Cc2ccccc2)C(=O)c2cnc(N3CCCC3)nc2N1c1ccccc1 [(S)-I-12] , and I need its recorded melting point.
result: 153.8 to 154.3 °C

query: I have this compound here, `C=C[C@@H]1CN(Cc2ccccc2)C(=O)c2cnc(-c3ccco3)nc2N1c1ccccc1` , and I need its recorded melting point.
result: 178.5 to 178.6 °C
